The measured values listed here are drawn from patent US20050003383A1.

Documented Km across a set of compounds
- Test system: linoleate isomerase from Clostridium sporogenes
- assay-method-text: C. sporogenes linoleate isomerase kinetic assay, absorbence at 234 nm, partially purified enzyme
- Format: biochemical
- protocol-conditions: compound as substrate; read-out: Km
- Description: In this experiment, all kinetic experiments were performed in a quartz cuvette (1-cm light-path with a magnetic stirrer) at room temperature using a HP 8452A diode array spectrophotometer. The cuvette was filled with 1 ml of incubation buffer containing 50 μg protein, 0.1 M potassium phosphate, pH7.5, 10 mM NaCl and 10% 1,2-propane diol. […] The increase in absorbence at 234 nm was monitored and recorded. […] The amount of product formed was calculated based on a molar extinction coefficient of 24,000.
Quick note: number first, unit second.

See these solved cases before continuing.
[[record]]
compound = "CC/C=C\\C/C=C\\C/C=C\\C/C=C\\CCCCC(=O)O"
tested_target = "linoleate isomerase from Clostridium sporogenes"
assay_value = "18.9 µM"

[[record]]
compound = "CCCCC/C=C\\C/C=C\\CCCCCCCC(=O)O [linoleic acid, (cis, cis)-9, 12-octadecadienoic acid]"
tested_target = "linoleate isomerase from Clostridium sporogenes"
assay_value = "11.3 µM"

[[record]]
compound = "CC/C=C\\C/C=C\\C/C=C\\CCCCCCCC(=O)O"
tested_target = "linoleate isomerase from Clostridium sporogenes"
assay_value = "22.5 µM"


Provide one value: measured Km of CCCCC/C=C\C/C=C\C/C=C\CCCCC(=O)O
23.8 µM

----------
- Tested on: linoleate isomerase from Clostridium sporogenes
- assay-method-text: C. sporogenes linoleate isomerase kinetic assay, absorbence at 234 nm, partially purified enzyme
- Type: biochemical
- protocol-conditions: isomerization of linoleic acid 10 PPM; cofactor 50 μM, DTT 1 mM
measurement-label: Activity (nmol/min)
Number only, in nmol/min; omit the unit.

See these solved cases before continuing.
[[record]]
compound = "Nc1ncnc2c1ncn2[C@@H]1O[C@H](COP(=O)(O)OP(=O)(O)OP(=O)(O)O)[C@@H](O)[C@H]1O"
assay_value = 11.1

[[record]]
compound = "NC(=O)c1ccc[n+]([C@@H]2O[C@H](COP(=O)([O-])OP(=O)(O)OC[C@H]3O[C@@H](n4cnc5c(N)ncnc54)[C@H](O)[C@@H]3O)[C@@H](O)[C@H]2O)c1"
assay_value = 10.8


Fill in Activity for O[C@H](CS)[C@H](O)CS (racemic) tested with linoleate isomerase from Clostridium sporogenes.
12.8

Fill in Activity for Nc1ncnc2c1ncn2[C@@H]1O[C@H](COP(=O)(O)OP(=O)(O)O)[C@@H](O)[C@H]1O tested with linoleate isomerase from Clostridium sporogenes.
11.1

Fill in Activity for NC(=O)C1=CN([C@@H]2O[C@H](COP(=O)(O)OP(=O)(O)OC[C@H]3O[C@@H](n4cnc5c(N)ncnc54)[C@H](OP(=O)(O)O)[C@@H]3O)[C@@H](O)[C@H]2O)C=CC1 tested with linoleate isomerase from Clostridium sporogenes.
11.1

----------
- System: linoleate isomerase from Clostridium sporogenes
- assay-method-text: C. sporogenes linoleate isomerase kinetic assay, absorbence at 234 nm, partially purified enzyme
- Format: biochemical
- protocol-conditions: isomerization of linoleic acid 10 PPM; cofactor 50 μM, DTT 1 mM; no cofactor = 100
measurement-label: Activity (%)
Number only, in %; omit the unit.

[[record]]
compound = "Nc1ncnc2c1ncn2[C@@H]1O[C@H](COP(=O)(O)OP(=O)(O)OP(=O)(O)O)[C@@H](O)[C@H]1O [ATP]"
measurement_label = "Activity (%)"
assay_value = 105

[[record]]
compound = "O[C@H](CS)[C@H](O)CS (racemic) [DTT, dithiothreitol]"
measurement_label = "Activity (%)"
assay_value = 121

[[record]]
compound = "NC(=O)c1ccc[n+]([C@@H]2O[C@H](COP(=O)([O-])OP(=O)(O)OC[C@H]3O[C@@H](n4cnc5c(N)ncnc54)[C@H](O)[C@@H]3O)[C@@H](O)[C@H]2O)c1 [NAD]"
measurement_label = "Activity (%)"
assay_value = 102

[[record]]
compound = "Nc1ncnc2c1ncn2[C@@H]1O[C@H](COP(=O)(O)OP(=O)(O)O)[C@@H](O)[C@H]1O [ADP]"
measurement_label = "Activity (%)"
assay_value = 105

[[record]]
compound = "NC(=O)C1=CN([C@@H]2O[C@H](COP(=O)(O)OP(=O)(O)OC[C@H]3O[C@@H](n4cnc5c(N)ncnc54)[C@H](OP(=O)(O)O)[C@@H]3O)[C@@H](O)[C@H]2O)C=CC1 [NADPH]"
measurement_label = "Activity (%)"
assay_value = 105


Provide one value: measured Activity (%) of NC(=O)C1=CN([C@@H]2O[C@H](COP(=O)(O)OP(=O)(O)OC[C@H]3O[C@@H](n4cnc5c(N)ncnc54)[C@H](O)[C@@H]3O)[C@@H](O)[C@H]2O)C=CC1 [NADH]
99
